# Target: T1, PHD3 double mutant K1620A/K1622A (UniProt P29375 1609-1659, K1620A | K1622A)
# T1 sequence: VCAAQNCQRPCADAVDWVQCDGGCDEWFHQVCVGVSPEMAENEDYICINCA
# Protocol summary: FP
Square brackets hold non-standard residues; d marks the D form. Ends that are not written are not given here. Lys(Me3) = C[N+](C)(C)CCCC[C@H](N)C(=O)O; fluorescent label = not defined here
Endpoint name: Kd (nM)
Numbers only, in nM.

IN: Report measured Kd; entry is ART[Lys(Me3)]QTARKS-{fluorescent label} (reading uncertain) [10mer H3K4me3 tracer containing a C-terminal fluorescent label]
OUT: 71
